// provenance: paper PMC8162404

# system-name: S100A4 (Homo sapiens)
# Construct: made in house; host or cells: Escherichia coli BL21(DE3)
# Sequence (P26447 whole entry): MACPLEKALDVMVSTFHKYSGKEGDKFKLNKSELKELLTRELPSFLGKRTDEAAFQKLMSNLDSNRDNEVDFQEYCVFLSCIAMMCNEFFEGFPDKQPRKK
# method-notes: Pull-down assay with immobilized protein and LSM libraries
# Format: binding
# run-conditions: H12 library; 1:1 binding assumed; read-out: Surface mapping KD (apparent)
pKd: −log10 of the molar value.
observation-type: pKd

1: CC(C)C[C@@H](CC(=O)N[C@H]1CCC[C@@H]1C(=O)N[C@H]1CCC[C@@H]1C(=O)N[C@H](CC(=O)N[C@H]1CCC[C@@H]1C(=O)N[C@H]1CCC[C@@H]1C(N)=O)Cc1ccc(O)cc1)NC(=O)[C@H]1CCC[C@@H]1NC(=O)[C@H]1CCC[C@@H]1N
2: CC(C)[C@@H](CC(=O)N[C@H]1CCC[C@@H]1C(=O)N[C@H]1CCC[C@@H]1C(N)=O)NC(=O)[C@H]1CCC[C@@H]1NC(=O)[C@H]1CCC[C@@H]1NC(=O)C[C@H](Cc1ccccc1)NC(=O)[C@H]1CCC[C@@H]1NC(=O)[C@H]1CCC[C@@H]1N
(Q) Form field 'greater pKd' accepts 1 or 2 ; which applies? In your reply, give the label of the chosen option.
(A) 1
(1: 4.00, 2: 3.68)

###

# system-name: Gal-1 (Homo sapiens, UniProt P09382)
# Construct: made in house; host or cells: E. coli BL21(DE3)
# Sequence (P09382 whole entry): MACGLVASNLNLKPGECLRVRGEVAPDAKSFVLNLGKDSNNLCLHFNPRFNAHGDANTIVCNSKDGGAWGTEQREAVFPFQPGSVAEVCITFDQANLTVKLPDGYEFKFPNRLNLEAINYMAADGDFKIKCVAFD
# method-notes: Pull-down assay with immobilized protein and LSM libraries
# Assay type: binding
# run-conditions: H12 library; 1:1 binding assumed; read-out: Surface mapping KD (apparent)
pKd: −log10 of the molar value.
observation-type: pKd

A: NC(=O)[C@H]1CCC[C@@H]1NC(=O)[C@H]1CCC[C@@H]1NC(=O)C[C@H](CC(=O)O)NC(=O)[C@H]1CCC[C@@H]1NC(=O)[C@H]1CCC[C@@H]1NC(=O)C[C@H](Cc1ccccc1)NC(=O)[C@H]1CCC[C@@H]1NC(=O)[C@H]1CCC[C@@H]1N
B: CC[C@H](C)[C@@H](CC(=O)N[C@H]1CCC[C@@H]1C(=O)N[C@H]1CCC[C@@H]1C(=O)N[C@H](CC(=O)N[C@H]1CCC[C@@H]1C(=O)N[C@H]1CCC[C@@H]1C(N)=O)CC(C)C)NC(=O)[C@H]1CCC[C@@H]1NC(=O)[C@H]1CCC[C@@H]1N
(Q) Would you kindly point out which of A and B has the smaller pKd figure? Answer format: the label of the selected item.
(A) B
(B: 3.40, A: 3.60)

###

# system-name: RecQ-WH (Escherichia coli)
# Construct: coding for residues 408– 523 of E. coli RecQ; made in house; host or cells: E. coli BL21(DE3)
# Sequence (P15043 408-523): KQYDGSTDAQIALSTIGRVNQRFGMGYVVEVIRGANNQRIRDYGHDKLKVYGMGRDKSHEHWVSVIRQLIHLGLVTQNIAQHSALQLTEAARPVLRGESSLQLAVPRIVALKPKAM
# method-notes: Pull-down assay with immobilized protein and LSM libraries
# Design: species or system E. coli
# run-conditions: H14 library; 1:1 binding assumed; read-out: Surface mapping KD (apparent)
Here, each record is paired with measured pKd data.
Conceptually, pKd converts a concentration in mol/L into minus its log10.

(Q) Item under review: CC[C@H](C)[C@@H](CC(=O)N[C@H]1CCCC[C@@H]1C(N)=O)NC(=O)[C@H]1CCCC[C@@H]1NC(=O)[C@H]1CCCC[C@@H]1NC(=O)C[C@@H](NC(=O)[C@H]1CCCC[C@@H]1N)[C@@H](C)CC [H14 II] . Reported pKd?
(A) 3.80

(Q) Sample N=C(N)NCCC[C@@H](CC(=O)N[C@H]1CCCC[C@@H]1C(N)=O)NC(=O)[C@H]1CCCC[C@@H]1NC(=O)[C@H]1CCCC[C@@H]1NC(=O)C[C@H](Cc1ccccc1)NC(=O)[C@H]1CCCC[C@@H]1N [H14 FR] — what was its pKd?
(A) 3.35

(Q) Fill in: pKd of CC(C)C[C@@H](CC(=O)N[C@H]1CCCC[C@@H]1C(N)=O)NC(=O)[C@H]1CCCC[C@@H]1NC(=O)[C@H]1CCCC[C@@H]1NC(=O)C[C@H](Cc1ccc(O)cc1)NC(=O)[C@H]1CCCC[C@@H]1N [H14 YL] is ___
(A) 3.82

(Q) What does the data say about its pKd? Entry: N=C(N)NCCC[C@@H](CC(=O)N[C@H]1CCCC[C@@H]1C(=O)N[C@H]1CCCC[C@@H]1C(=O)N[C@@H](CC(=O)O)CC(=O)N[C@H]1CCCC[C@@H]1C(N)=O)NC(=O)[C@H]1CCCC[C@@H]1N [H14 RD]
(A) 3.37
